Provide the recorded self-cleavage for the entries that follow.
B1: LINE1-full (parent)
chain: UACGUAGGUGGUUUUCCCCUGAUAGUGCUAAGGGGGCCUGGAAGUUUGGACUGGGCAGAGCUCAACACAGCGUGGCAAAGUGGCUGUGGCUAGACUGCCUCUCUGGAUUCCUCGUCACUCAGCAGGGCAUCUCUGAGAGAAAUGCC

- Variants of: B1
- ASSAY SUMMARY: self-cleavage, relative activity (ratio to wild type); higher = more cleavage; in vitro, sequencing; the parent is a self-cleaving ribozyme
Answer with a bare number; do not write a unit.

In: What self-cleavage value was documented for this variant, G34A U96G ?
Out: 0.09

In: Field entry: A67U G105U
Out: 0.12

In: Field entry: U12C A67U
Out: 0.21

In: Field entry: U15A A31U
Out: 1.05

In: Field entry: A6G U134C
Out: 0.85

In: Field entry: C51A U73G
Out: 0.69

In: Field entry: A30U G125U
Out: 1.17

In: Field entry: U85G A138G
Out: 0.22

In: Field entry: A117U A124U
Out: 1.26

From: the RNAGym collection of RNA variant scans (doi:10.7554/elife.90254)
